# measured.on: human thrombin (Homo sapiens)
# Construct: biotin (chemical label)
# method.summary: mRNA display selection against thrombin, selected sequences ranked by next-generation-sequencing frequency
# Assay type: binding
# measurement.parameters: Round 2 of selection, five washes; top binders ranked by frequency
Label 0 (no) if counts falls below 800; label 1 (yes) in every other case.

RDPGRVIFEI (MGCTSVHQETKKYQSRDPGRVIFEISYTYNYEHVDVWGCGSADYKDDDDKKK) ... 1 (yes)

### Prompt Check if counts >= 800 (inclusive). Item: RDPYNVLISL (MGCTSVHQETKKYQSRDPYNVLISLSYTYNYEHVDVWGCGSADYKDDDDKKK)
### Response 0 (no)

### Prompt Exam item: decide whether the reported counts for VVEFHFKWCI is at least 800.
### Response 0 (no)

### Prompt Could you verify whether the entry RDPGRLIFQS (MGCTSVHQETKKYQSRDPGRLIFQSSYTYNYEHVDVWGCGSADYKDDDDKKK) shows counts of no less than 800?
### Response 1 (yes)

### Prompt // inclusive: counts at least 800? input: VTSTYMFMYA
### Response 0 (no)

### Prompt Would you say AAVRLNSSS* shows counts at minimum 800?
### Response 0 (no)

### Prompt Entry HRLQIATVYT (MGCTSVHQETKKYQSHRLQIATVYTSYTYNYEHVDVWGCGSADYKDDDDKKK) : is its counts no less than 800?
### Response 0 (no)

### Prompt For this substance, is measured counts 800 or higher? ETRIYIRFHT (MGCTSVHQETKKYQSETRIYIRFHTSYTYNYEHVDVWGCGSADYKDDDDKKK)
### Response 0 (no)
